assay remarks: in vivo
recorded conditions: mouse, in vivo, icv or intrathecal
quantity kind: LD50 at 168 h (mg/kg)

{"compound": "O=C(Nc1c(I)c(C(=O)NCC(O)CO)c(I)c(C(=O)NCC(O)CO)c1I)C(=O)[C@@H](O)[C@H](O)[C@@H](O)CO (stereo partly shown)", "quantity kind": "LD50 at 168 h", "numeric readout": 3380}

* * *

assay remarks: Solubility in water
Assay type: physicochemical
recorded conditions: water; Method I product; read-out: solubility in water
quantity kind: solubility

{"compound": "O=C(Nc1c(I)c(C(=O)NCC(O)CO)c(I)c(C(=O)NCC(O)CO)c1I)C(=O)[C@@H](O)[C@H](O)[C@@H](O)CO (stereo partly shown)", "result": "≥ 1000 mg/mL"}
